Just for reference, PubChem BioAssay (NCI) is where these values come from.

# TGI values compiled below
Test system: KM12 colon
Test: NCI tumour cell line growth inhibition, 48 h

Below: 3 compounds and their reported TGI.
* O=c1c(-c2ccccc2)c2n(c3ccccc13)CCN2 | > 100 µM
* CCOC(=O)C(C)c1c(C(=O)c2ccc(C)nc2)c2ccccc2n1C (centres undefined) | > 100 µM
* Clc1cccc(Cl)c1C1SCc2nc3ccccc3n21 (centres undefined) | > 100 µM

Field: TGI (KM12 colon). Entry: CCC(=O)/C=C/c1ccccc1 42.9 µM

* * *

System: SK-OV-3 ovarian
Assay: NCI tumour cell line growth inhibition, 48 h; in the data active = GI50 below about 0.43 µM; inactive = the rest
Outcomes you can answer with include only these: active, inactive

Returns: the outcome recorded for CCCCCCCCCCS(=O)CC(CO)NC(=O)/C=C/c1c(C)[nH]c(=O)[nH]c1=O (stereo not given) in this assay. inactive

* * *

Tested on: RPMI-8226 leukemia
Assay: NCI tumour cell line growth inhibition, 48 h
Measurement Kind: TGI

Below: 5 molecules and their reported TGI.
- CCOC(=O)C(/C=N\C(=S)Nc1c(CC)cccc1C(C)(C)C)=C(/O)c1ccccc1: > 100 µM
- CN(C)/C=C1\CCc2ccc([N+](=O)[O-])cc2C1=O: 62.2 µM
- CCOC(=O)/C=C(/C(=O)OCC)n1cc(C)c(=O)n(/C(=C/C(=O)OCC)C(=O)OCC)c1=O: 4.52 µM
- Clc1cccc(Cl)c1C1SCc2nc3ccccc3n21 (centres undefined): > 100 µM
- CC/C=C/C[C@H](O[Si](C)(C)C(C)(C)C)[C@H]1C[C@H]2O[C@H]([C@@H](O)C#C[Si](C)(C)C)C[C@H]2O1: 37.6 µM

Which TGI reading was recorded for the molecule [N-]=[N+]=NCCCn1c2c(c3cc4c(cc3c1=O)OCO4)C(=O)c1ccccc1-2 ? > 100 µM

* * *

# TGI values compiled below
Test system: SF-539 CNS
Assay: NCI tumour cell line growth inhibition, 48 h

Below: 4 compounds and their reported TGI.
• CC(C)=CCC/C(C)=C/CO = > 100 µM
• CCCN=Cc1c(O)c(O)c(C(C)C)c2cc(C)c(-c3c(C)cc4c(C(C)C)c(O)c(O)c(C=NCCC)c4c3O)c(O)c12 = > 28.8 µM
• c1ccc2c(c1)SC1=C(SC(=C3SC4=C(S3)Sc3ccccc3S4)S1)S2 = > 100 µM
• COc1c(C)c(O)c2c(=O)cc(-c3ccccc3)oc2c1C = > 100 µM

Now, please, on to the next compound.
Which TGI reading was recorded for the compound CNC(=O)NCC1OC(n2cnc3c(NC(=O)Nc4ccccc4)ncnc32)C(O[Si](C)(C)C(C)(C)C)C1CC(=O)N(C)OC (stereo not given) ? > 100 µM

* * *

Tested on: MDA-N
Test: NCI tumour cell line growth inhibition, 48 h
# TGI values compiled below

Below: 2 molecules and their reported TGI.
- c1ccc2c(c1)SC1=C(SC(=C3SC4=C(S3)Sc3ccccc3S4)S1)S2: > 100 µM
- CCC(=O)c1cc(C(=O)C(=S)SC)cc(C(=O)C(=S)SC)c1: > 100 µM

Now, please, on to the next molecule.
Which TGI reading was recorded for the molecule COc1ccc(NC2=NCCO2)c2c1CCCC2 ? > 100 µM

* * *

Tested on: KM12 colon
Experiment: NCI tumour cell line growth inhibition, 48 h
Measurement Kind: TGI

* Cc1cc2c(O)c(c1)COCc1cc(C)cc(c1O)COCc1cc(C)cc(c1O)COC2 | > 100 µM
* Cc1cc(=O)oc2cc(OCc3nc4ccccc4c(=O)n3-c3ccccc3)ccc12 | > 100 µM

Now, please, on to the next compound.
Which TGI reading was recorded for the compound COC(=O)/C(=N\NC(=O)c1ccccc1O)C(C#N)c1ccccc1 (stereo not drawn) ? > 50 µM

* * *

Test system: HT29 colon
Test: NCI tumour cell line growth inhibition, 48 h
# TGI values compiled below

• OC1c2ccccc2CCC1C(O)(C(F)(F)F)C(F)(F)F (stereo unspecified) = > 100 µM
• CCCCCCCCCCCCCCCC/C(C(=O)OC)=C(/O)C(=O)OCC = > 100 µM
• Cc1ccc(S(=O)(=O)NC(=O)NC(C(=O)O)C(C)C)cc1 (stereo unspecified) = > 100 µM

Which TGI reading was recorded for the molecule COC1=C(OC)C(O)(c2ccccc2)C1=O (stereo unspecified) ? > 100 µM

Which TGI reading was recorded for the molecule COc1cc([C@@H]2c3cc4c(cc3[C@@H](Nc3ccc(N=Cc5ccc(C(=O)O[C@@H](C(=O)O[C@H]6C[C@@]7(O)[C@@H](OC(=O)c8ccccc8)[C@@H]8[C@]9(OC(C)=O)CO[C@@H]9C[C@H](O)[C@@]8(C)C(=O)[C@H](OC(C)=O)C(=C6C)C7(C)C)[C@@H](NC(=O)c6ccccc6)c6ccccc6)cc5)cc3)[C@H]3COC(=O)[C@H]23)OCO4)cc(OC)c1O ? > 50 µM

Which TGI reading was recorded for the molecule COc1ccc2c(CCNC(C)=O)c(C(C)=O)[nH]c2c1 ? > 100 µM

* * *

System: HT29 colon
Assay: NCI tumour cell line growth inhibition, 48 h
Measurement Kind: TGI

• CNC(=O)NCC1OC(n2cnc3c(NC(=O)Nc4ccccc4)ncnc32)C(O[Si](C)(C)C(C)(C)C)C1CC(=O)N(C)OC (stereo unspecified) = > 100 µM

Which TGI reading was recorded for the molecule CCCN=Cc1c(O)c(O)c(C(C)C)c2cc(C)c(-c3c(C)cc4c(C(C)C)c(O)c(O)c(C=NCCC)c4c3O)c(O)c12 ? > 24.9 µM

* * *

Tested on: MDA-MB-435
Test: NCI tumour cell line growth inhibition, 48 h
# TGI values compiled below
All answers are understood in µM, so give the number only.

Below: 5 molecules and their reported TGI.
* c1cc2c(s1)SSSSS2 | 35.8
* CN(C)/C=C1\CCc2ccc([N+](=O)[O-])cc2C1=O | 34.8
* CC[C@]12C=CCN3CC[C@@]4(c5cc(N=O)c(OC)cc5N(C)[C@H]4[C@@](O)(C(=O)NC(Cc4c[nH]c5ccccc45)C(=O)OC)[C@@H]1O)[C@@H]32 (stereo partly specified) | 33.3
* COc1cc(-c2ccc(-c3ccc(C(=N)N)cc3)s2)cc(OC)c1OC | 3.01
* CN(CCCCCl)P(=O)(OCC1=CC(=O)c2ccccc2C1=O)OC[C@H]1O[C@@H](n2cc(F)c(=O)[nH]c2=O)C[C@@H]1O (stereo partly specified) | 2.21

Which TGI reading was recorded for the molecule O=c1c2cc(F)ccc2sc2c(Nc3ccncc3)nc3ccccc3c12 ? 3.67

Which TGI reading was recorded for the molecule O=c1cc(-c2ccccc2)c2ccc(O)c(CN(CCCl)CCCl)c2o1 ? 39.9

Which TGI reading was recorded for the molecule NCCCCCCCCCCn1c2c(c3ccccc3c1=O)C(=O)c1ccccc1-2 ? 27.9

* * *

Test system: TK-10 renal
Test: NCI tumour cell line growth inhibition, 48 h
# TGI values compiled below

Below: 5 compounds and their reported TGI.
• COc1ccc(/C=C/C(=O)c2cc3c(N)c(C(=O)Nc4cccc(Cl)c4C)sc3nc2C)cc1 = > 50 µM
• CC(C)NCCCC(C)Nc1ccnc2ccc3nn(C)nc3c12 (stereo unspecified) = > 100 µM
• CCC(=O)c1cc(C(=O)C(=S)SC)cc(C(=O)C(=S)SC)c1 = > 100 µM
• Cc1cc2nc(C#N)c(N3CCN(c4ccc([N+](=O)[O-])cc4)CC3)nc2cc1C = > 100 µM
• C#CCn1cnc2cnc(Nc3cccc(NC(=O)CCl)c3)nc21 = > 62.5 µM

Now, please, on to the next compound.
Which TGI reading was recorded for the compound COC1/C=C\C=C(/C)C(=O)NC2=CC(=O)C(N)=C(CC(C)CC(OC)C(O)C(C)C=C(C)C1OC(N)=O)C2=O (stereo unspecified) ? > 77.2 µM

* * *

# TGI values compiled below
System: SF-268 CNS
Experiment: NCI tumour cell line growth inhibition, 48 h

* O=C1Nc2cc(Cl)ccc2C(=O)N2CCC[C@@H]12 | > 100 µM

Which TGI reading was recorded for the compound Cc1ccc(O)c(-c2cc(-c3cccc(Br)c3)on2)c1 ? 89.9 µM

Which TGI reading was recorded for the compound COC1=CC(=Nc2c(Cl)cc(Cl)cc2OC(=O)c2ccc([N+](=O)[O-])cc2)C=C(OC)C1=O ? 23.2 µM

* * *

System: SNB-19 CNS
Experiment: NCI tumour cell line growth inhibition, 48 h
# TGI values compiled below
All answers are understood in µM, so give the number only.

Which TGI reading was recorded for the compound CO[C@@H]1C[C@H](OC(N)=O)[C@@H]2C=C[C@@H]3/C=C(C)/C=C/[C@@H](C)[C@H]([C@H](C)[C@H](O)[C@@H](C)NC(C)=O)OC(=O)/C=C/C=C(C)\C=C\[C@]3(C)[C@@H]2C1 ? 17.7

Which TGI reading was recorded for the compound Nc1nc(N)c(N=Nc2ccccc2)c(-c2ccccc2)n1 ? 43.3

Which TGI reading was recorded for the compound Cc1c2c(cc3c1[nH]c1ccccc13)C(c1ccc(Cl)cc1)=NCC2 ? 1.72
